Molecular target: CDK2-NanoLuc fusion with CCNE1 in 293T or 293 cells (Homo sapiens, UniProt P24941)
Construct: host or cells: 293T (ATCC CRL-3216) or 293 (ATCC CRL-1573)
Assay: NanoBRET Target Engagement (TE) Intracellular Kinase Assay, CDK2/CCNE1
Format: cell-based
Settings: NanoBRET TE intracellular kinase assay, 2-hour incubation, read-out: NanoBRET-CDK2/E1 IC50
Procedure: Inhibitory effects of compounds were measured in NanoBRET TE Intracellular Kinase Assay. […] NanoBRET signals (donor emission wavelength at 450 nm, acceptor emission wavelength at 610 nm) were measured using Envision plate reader (PerkinElmer). NanoBRET ratio was calculated by: BRET Ratio=raw signal for acceptor/raw signal for donor. […]
pIC50: −log10 of the molar value.
Would you please tag the item y when its pIC50 is 8 or above, and n when it is below?

These recorded examples may help you get a feel for the data.
COc1cc(O)c(C=O)c2c1C[C@@H](C(=O)Nc1cc([C@H]3CC[C@@H](OC(=O)NC(C)C)C3)[nH]n1)C2    y
COc1cc(O)c(C=O)c(OCC(=O)Nc2cc([C@H]3CC[C@@H](OC(=O)N4C[C@H](F)C[C@@H]4C)C3)n[nH]2)c1    y
CCCNC(=O)O[C@@H]1CC[C@H](c2cc(NC(=O)COc3cc(OC)cc(O)c3C=O)n[nH]2)C1    y
C#Cc1cc(O)c(C=O)c(OCC(=O)Nc2cc([C@H]3CC[C@@H](OC(=O)NC(C)C)C3)[nH]n2)c1    y
CCNN(C)C(=O)O[C@@H]1CC[C@H](c2cc(NC(=O)COc3cc(OC)cc(O)c3C=O)n[nH]2)C1    y
CC(C)NC(=O)O[C@@H]1CC[C@H](c2cc(NC(=O)CCOc3cccc(O)c3C=O)n[nH]2)C1    y

Enquiry: For this compound, is measured pIC50 8 or higher? COc1cc(O)c(C=O)c(OCC(=O)Nc2cc([C@H]3CC[C@@H](OC(=O)N4C[C@@H]5C[C@H]4CO5)C3)[nH]n2)c1
Return: y

Enquiry: Same again, this time with COc1cc(O)c(C=O)c2c1CC(C(=O)Nc1cc([C@H]3CC[C@@H](OC(=O)N(C)N(C)C)C3)n[nH]1)C2 (single isomer, unassigned)
Return: y

Enquiry: Ok, now COc1cc(OC)c(C=O)c(OCC(=O)Nc2cc([C@H]3C[C@@H](OC(=O)N4C5COCC4C5)C3)[nH]n2)c1
Return: y

Enquiry: // repeat for CC(C)NC(=O)O[C@@H]1CC[C@H](c2cc(Nc3cc(COc4cccc(O)c4C=O)ccn3)n[nH]2)C1 and report
Return: n

Enquiry: Ok, now CC(C)NC(=O)O[C@@H]1CC[C@H](c2cc(NC(=O)COc3cccc(O)c3C=O)n[nH]2)C1
Return: y

Enquiry: Next: COc1cc(O)c(C=O)c(OCC(=O)Nc2cc([C@H]3CC[C@@H](OC(=O)NC4(C(F)F)CC4)C3)[nH]n2)c1
Return: y

Enquiry: Input CC(C)NC(=O)O[C@@H]1CC[C@H](c2cc(NC(=O)C3C[C@H]3c3cccc(O)c3C=O)n[nH]2)C1 (stereo in doubt)
Return: n

Enquiry: Now the same for CCN(CC)C(=O)O[C@@H]1CC[C@H](c2cc(NC(=O)COc3cc(OC)cc(O)c3C=O)n[nH]2)C1
Return: y

Enquiry: Would you kindly repeat that for COc1cc(O)c(C=O)c(OCC(=O)Nc2cc([C@H]3C[C@@H](OC(=O)N4CCCC4)C3)[nH]n2)c1 ?
Return: y

Enquiry: Another: COc1cc(O)c(C=O)c(OCC(=O)Nc2cc([C@H]3CC[C@@H](OC(=O)N4C[C@@H]5CC[C@H]4C5)C3)[nH]n2)c1
Return: y

Enquiry: One more compound: C#CCNC(=O)O[C@@H]1CC[C@H](c2cc(NC(=O)COc3cc(OC)cc(O)c3C=O)n[nH]2)C1
Return: y

Enquiry: Same question, COc1cc(O)c(C=O)c(OCC(=O)Nc2cc([C@H]3CC[C@@H](OC(=O)N4C[C@H]5C[C@@H]4CS5(=O)=O)C3)n[nH]2)c1 this time
Return: n

Enquiry: How about COCCNC(=O)O[C@@H]1CC[C@H](c2cc(NC(=O)COc3cc(OC)cc(O)c3C=O)n[nH]2)C1 ?
Return: y

Enquiry: Then CC(C)NC(=O)O[C@@H]1CC[C@H](c2cc(NC(=O)Cc3ccc(C=O)c(O)c3)n[nH]2)C1 ?
Return: y
